Tested on: P388
Assay: In vitro inhibition against P-388 mouse leukemia cells using growth inhibition assay at the concentration of 100 ug/mL
Type: functional
YES means recorded inhibition at 100 µg/mL is 60% or above; NO means it is below 60%.

| Molecule | Qualitative Label |
| --- | --- |
| Nc1ncnc2c1ncn2[C@@H]1C[C@H](CO)[C@@H](O)[C@H]1O [ARISTEROMYCIN] | YES |
| Nc1nc(Cl)c2ncn(C3CC(CO)C(O)C3O)c2n1 (configuration not stated) | NO |
| Nc1nc(N)c2ncn(C3CC(CO)C(O)C3O)c2n1 (configuration not stated) | NO |
| Nc1nc(O)c2nnn(C3CC(CO)C(O)C3O)c2n1 (configuration not stated) | YES |

# check: inhibition at 100 µg/mL of Nc1nc(Cl)c2nnn(C3CC(CO)C(O)C3O)c2n1 (configuration not stated) is greater than or equal to 60% YES

# check: inhibition at 100 µg/mL of Nc1nc(O)c2ncn(C3CC(CO)C(O)C3O)c2n1 (configuration not stated) is greater than or equal to 60% YES
